Assay System: T1, RSV postfusion F (postF), subtype B (respiratory syncytial virus subtype B)
T1 construct: also called Postfusion subtype B
T1 sequence (P13843 26-109, chain 1 of 2): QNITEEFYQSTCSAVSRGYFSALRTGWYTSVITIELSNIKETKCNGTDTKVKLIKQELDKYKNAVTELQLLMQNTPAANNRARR
T1 sequence (P13843 147-513, chain 2 of 2): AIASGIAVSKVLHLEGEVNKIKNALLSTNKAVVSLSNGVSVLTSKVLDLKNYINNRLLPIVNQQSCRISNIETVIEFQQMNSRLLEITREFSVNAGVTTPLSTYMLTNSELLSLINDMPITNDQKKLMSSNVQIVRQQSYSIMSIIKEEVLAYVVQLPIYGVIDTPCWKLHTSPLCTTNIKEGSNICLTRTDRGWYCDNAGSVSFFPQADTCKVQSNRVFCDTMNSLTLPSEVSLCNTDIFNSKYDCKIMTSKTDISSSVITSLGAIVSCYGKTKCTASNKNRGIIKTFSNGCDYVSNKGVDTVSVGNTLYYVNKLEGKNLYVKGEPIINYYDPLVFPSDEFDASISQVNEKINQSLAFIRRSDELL
Assay Overview: BLI, IgG

Binder: ADI-14375 (antibody, V domains shown, full-length IgG; also called Ab 43) VH: EVQLVESGGGLVQPGGSLRLSCAVSGFTFSNYAVSWVRQAPGKGLEWVSGISGSGGTTYYVDSVKGRFTVSRDNSKNTLFLQLNSLKAEDTAVYYCAKDWGYSGGRPYFDYWGQGTLVTVSS VL: QSVLTQPPSVSGAPGQRVTISCTASSSNIGPIYDVHWYQQLPGTGPKLLIYGNNNRPSGVPDRFSGSKSGTSASLAITGLQAEDEADYYCQSYDTSLSVVFGGGTKLTVL
Kd / nM: 3.31

Binder: ADI-14352 (antibody, V domains shown, full-length IgG; also called Ab 20) VH: EVQLLETGPGLVKPSQTLSLICAVSGGSISSGGYSWSWIRQPPGKGLEWVGYISYSGSTYYNPSLKSRVTISVDTSKNQFSLKLNSVTAADTAVYFCARVDGIYSSGMRFDYWGQGTLVTVSS VL: DIQLTQSPGTLSLSPGERATLSCRASQSVSSYYLAWYQQKPGQAPRLLIYGTSSRATGIPDRFSGSGSGTDFTLTISRLEPEDFAVYYCQQYGRSPLFGQGTRLEIK
Kd / nM: 0.383

Binder: ADI-19476 (antibody, V domains shown, full-length IgG) VH: QVQLVESGPTLVKPTQTLTLTCTFSGFSLSTSRVGVGWIRQPPGKALEWLALIYWDDDKRYSPSLKSRLTITKDTSKNQVVLTMTNMDPVDTARYYCAHRSTYDILGGYYYFDYWGQGTLVTVSS VL: QPVLTQPRSVSGSPGQSVTISCTGTSSDVGGYNYVSWFQQHPGKAPKLMIYDVSKRPSGVPNRFSGSKSGNTASLTISGLQAEDEADYFCCSYAGTYEVFGGGTKLTVL
Kd / nM: 0.838

Binder: ADI-25497 (antibody, V domains shown, full-length IgG) VH: EVQLLESGGGLVQPGGSLRLSCAASGFTFSSYWMSWVRQAPGKGLEWVANIKQDGSEKYYVDSVKGRFTISRDNAKNSLYLQMNSLRAEDTAVYYCARDGLLQYDFWSGYYDYWGQGTLVTVSS VL: EIVLTQSPSSLSASVGDRVTITCRASQGISSWLAWYQQKPEKAPKSLIYAASSLQSGVPSRFSGSGSGTDFTLTISSLQPEDFATYYCQQYNSYPFTFGPGTKVDIK
Kd / nM: 14.8

Binder: ADI-25573 (antibody, V domains shown, full-length IgG) VH: EVQLVESGAEVKKPGASVKVSCKASGYTFTSYYMHWVRQAPGQGLEWMGIINPSGGSTSYAQKFQGRVTMTRDTSTSTVYMELSSLRSEDTAVYYCARGPYDSSGYCDYWGQGTLVTVSS VL: SYELMQPPSVSVAPGKTARITCGGNNIGSKSVHWYQQKPGQAPVLVVYDDSDRPSGTPERFSGSNSGNTATLTISRVEAGDEADYYCQVWDSSSDQVFGGGTKVTVL
Kd / nM: 48.6

Binder: ADI-22759 (antibody, V domains shown, full-length IgG) VH: EVQLLESGGGLVKPGGSLRLSCAASGFSFSSYTMNWVRQAPGKGLEWVSSITGGSSYIDYAGSLKGRFTISRDNAKNSLYLQMNSLRVEDTAVYYCARDFPNIAVGGKTLDYWGQGTLVTVSS VL: QPVLTQPPSVSGAPGQRVTISCTGSSSNIGAGYDVHWFQQLPGTAPKLLIYVNNNRPSGVPDRFSGSKSGTSASLAITGLQAEDEADYYCQSYDRLSAVVFGGGTKVTVL
Kd / nM: 10.1

Binder: ADI-14379 (antibody, V domains shown, full-length IgG; also called Ab 47) VH: EVQLLESGGGVVQPGRSLRLSCAASGFTFSSYAMHWVRQAPGKGLEWVAVIGNDGTNKYHADSVKGRFTISRDNSKNTLYLQMNSLRAEDTAVYYCARRRVGIMYSGSYWGGMDVWGQGTTVTVSS VL: SYELTQPPSVSVSPGQTASITCSGDKLGGKYVSWYQQKPGQSPVLVMYQDTRRPSGIPERLSGSNSGSTATLTISATQAMDEADYYCQAWDITTVHVVFGGGTKLTVL
Kd / nM: 2.35

Binder: ADI-22764 (antibody, V domains shown, full-length IgG) VH: QVQLVESGPGLVRPSGTLSLTCAVSGGSISGKNWWSWVRQPPGKGLEWIGEIDHSGSTNYNPSLKSRVTISVDKSKNQFSLKLSSVTAADTAVYYCARTGLYDSSGYYLYYFNYWGQGTLVTVSS VL: EIVMTQSPSSLSASVGDRVTISCRASQTIASYVNWYQQRPGKAPNLLIFAASNLQTGVPSRFRGSGSGTVFTLTISSLQPEDFATYYCQQSYSTPRTFGQGTKVDIK
Kd / nM: 1.44

Binder: ADI-19483 (antibody, V domains shown, full-length IgG) VH: QVQLVQSGAEVKKPGESLKISCKGSGYSFTTYWIGWVRQMPGKGLEWMGIIFPGDSDTRYSPSFQGQVTISADKSISTAYLQWSSLKASDTAMYFCARSAFPFGFDIWGQGTMVTVSS VL: SYVLTQPHSVSESPGKTVTISCTRSSGSIASNYVQWYQQRPGSSPTTVIYEDHQRPSGVPDRFSGSIDSSSNSASLTISGLQTEDEADYYCQSYGSGNPWVFGGGTKVTVL
Kd / nM: 0.153

Binder: ADI-14358 (antibody, V domains shown, full-length IgG; also called Ab 26) VH: QVQLVQSGGGLVKPGGSLRLSCVASGFTFSDYYMTWIRQAPGKGLEWVSYISGSSAYTIYADSVKGRFTISRDNAKNSLYLQMNGLRAEDTAVYYCARVSWVRSLDSWGQGTLVTVSS VL: QSALTQPASVSGSPGQSITISCTGSTSDVGLYNYVSWYQLHPGKAPKLIIYDVRHRPSGVSDRFSASKSGNTASLTISGLQAEDEADYYCCSYTSSSTYVFGSGTQLTVL
Kd / nM: 27.5

Provenance of the data: patent US20260258115A1
